Provide the recorded Classification for the entries that follow.
Target: PDZ protein (GST-PDZ fusion) (Homo sapiens)
Construct: made in house; host or cells: E. coli (DH5alpha, BL21 or JM109)
Sequence (Q13796 whole entry, the tested form may be a part): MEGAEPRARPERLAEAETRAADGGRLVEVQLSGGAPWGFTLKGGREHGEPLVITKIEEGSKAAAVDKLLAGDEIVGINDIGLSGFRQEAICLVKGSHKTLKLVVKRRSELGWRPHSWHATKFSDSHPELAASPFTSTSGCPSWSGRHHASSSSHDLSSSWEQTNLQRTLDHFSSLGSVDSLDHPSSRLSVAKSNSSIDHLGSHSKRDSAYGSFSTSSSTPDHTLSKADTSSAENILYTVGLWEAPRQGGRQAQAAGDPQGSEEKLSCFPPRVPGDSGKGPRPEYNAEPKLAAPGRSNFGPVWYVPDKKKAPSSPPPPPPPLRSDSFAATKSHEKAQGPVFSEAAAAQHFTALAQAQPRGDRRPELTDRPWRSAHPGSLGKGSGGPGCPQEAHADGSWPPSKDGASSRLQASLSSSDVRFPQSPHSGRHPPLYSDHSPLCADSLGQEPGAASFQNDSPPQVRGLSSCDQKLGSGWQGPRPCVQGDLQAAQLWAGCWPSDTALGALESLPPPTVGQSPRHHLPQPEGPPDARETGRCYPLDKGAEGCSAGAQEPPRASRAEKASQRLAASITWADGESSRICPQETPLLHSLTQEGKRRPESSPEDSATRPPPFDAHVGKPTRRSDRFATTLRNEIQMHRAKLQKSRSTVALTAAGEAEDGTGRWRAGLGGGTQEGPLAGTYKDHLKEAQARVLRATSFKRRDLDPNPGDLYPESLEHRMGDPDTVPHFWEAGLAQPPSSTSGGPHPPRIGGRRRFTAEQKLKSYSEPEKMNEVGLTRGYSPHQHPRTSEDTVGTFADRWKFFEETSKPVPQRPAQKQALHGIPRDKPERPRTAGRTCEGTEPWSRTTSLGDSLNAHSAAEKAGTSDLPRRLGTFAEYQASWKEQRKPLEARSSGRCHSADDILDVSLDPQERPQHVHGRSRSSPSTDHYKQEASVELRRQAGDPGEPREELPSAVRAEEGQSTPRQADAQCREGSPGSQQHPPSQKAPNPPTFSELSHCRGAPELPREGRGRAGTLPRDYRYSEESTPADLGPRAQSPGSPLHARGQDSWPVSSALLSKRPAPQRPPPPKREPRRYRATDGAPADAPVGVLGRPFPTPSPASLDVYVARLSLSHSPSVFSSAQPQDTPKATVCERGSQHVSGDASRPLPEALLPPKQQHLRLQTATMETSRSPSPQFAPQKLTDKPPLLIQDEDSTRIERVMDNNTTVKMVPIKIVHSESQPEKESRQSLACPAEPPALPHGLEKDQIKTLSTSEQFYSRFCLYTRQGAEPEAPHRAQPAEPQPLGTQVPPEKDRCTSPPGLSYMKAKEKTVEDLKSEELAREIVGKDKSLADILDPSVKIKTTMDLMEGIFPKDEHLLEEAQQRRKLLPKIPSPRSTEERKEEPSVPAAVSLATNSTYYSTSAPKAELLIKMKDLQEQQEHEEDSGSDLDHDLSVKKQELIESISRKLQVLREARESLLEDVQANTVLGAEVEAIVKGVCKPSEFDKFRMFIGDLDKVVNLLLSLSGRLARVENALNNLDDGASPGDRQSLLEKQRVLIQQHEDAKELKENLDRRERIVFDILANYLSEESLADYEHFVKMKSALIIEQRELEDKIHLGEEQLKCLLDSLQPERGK
Assay: G' assay (10 uM PL peptide), results of TABLE 7 and TABLE 12
Type: binding
Settings: PDZ hAPXL, PDZ Domain 1
Ends that are not written are not given here. * marks the point of attachment. Biotin = O=C1N[C@H]2[C@H](CS[C@H]2CCCCC(=O)*)N1

Below are worked cases with known answers.
substance="ACM3_HUMAN (Biotin-QQYQQRQSVIFHKRAPEQAL)" assayed_target="PDZ protein (GST-PDZ fusion) (Homo sapiens)" measured_endpoint=Classification result="1 (A450 nm 0-1)"
substance="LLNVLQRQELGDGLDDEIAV (Biotin-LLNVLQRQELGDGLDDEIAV)" assayed_target="PDZ protein (GST-PDZ fusion) (Homo sapiens)" measured_endpoint=Classification result="1 (A450 nm 0-1)"
substance="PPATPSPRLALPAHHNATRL (Biotin-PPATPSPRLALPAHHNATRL) [Na+/Pi cotransporter 2]" assayed_target="PDZ protein (GST-PDZ fusion) (Homo sapiens)" measured_endpoint=Classification result="1 (A450 nm 0-1)"
substance="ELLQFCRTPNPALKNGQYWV (Biotin-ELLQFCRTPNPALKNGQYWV)" assayed_target="PDZ protein (GST-PDZ fusion) (Homo sapiens)" measured_endpoint=Classification result="3 (A450 nm 2-3)"
substance="DAKLKSDGTIAAITEKETHF (Biotin-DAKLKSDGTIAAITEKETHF) [GABA transporter 3]" assayed_target="PDZ protein (GST-PDZ fusion) (Homo sapiens)" measured_endpoint=Classification result="1 (A450 nm 0-1)"
substance="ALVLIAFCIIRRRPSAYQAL (Biotin-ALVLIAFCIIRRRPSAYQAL) [CD68]" assayed_target="PDZ protein (GST-PDZ fusion) (Homo sapiens)" measured_endpoint=Classification result="2 (A450 nm 1-2)"

Each of the following entries comes with a recorded value; kindly state Classification for each.
1. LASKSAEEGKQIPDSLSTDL (Biotin-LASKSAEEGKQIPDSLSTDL) [Dock2]
2. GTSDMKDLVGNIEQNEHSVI [Mannose Receptor]
3. SSKSKSSEESQTFFGLYKL (Biotin-SSKSKSSEESQTFFGLYKL) [Fas Ligand]
4. EVIGYIEKPGVETLEDSVF (Biotin-EVIGYIEKPGVETLEDSVF) [CDW125 (modified)]
5. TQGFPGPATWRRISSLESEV

2 (A450 nm 1-2)
1 (A450 nm 0-1)
2 (A450 nm 1-2)
1 (A450 nm 0-1)
1 (A450 nm 0-1)

Reference source: patent US20050282743A1
